- Measured Target: α1A-ARS (Homo sapiens)
- Assay Text: Calcium flux assay (Calcium 6 dye) in cells expressing an α1-AR
- Format: cell-based
- Condition Notes: calcium flux, α1A-AR; mean of at least three experiments; read-out: Average PEC50
pEC50: −log10 of the molar value.
# pEC50 values compiled below

| Smiles Notation | pEC50 |
| --- | --- |
| c1cc(CC2=NCCN2)c2occc2c1 | 6.01 to 8.00 |
| Clc1ccc(CC2=NCCN2)c(-c2ccncn2)c1 | < 6.00 |
| Cc1cc(Cl)cc(C)c1CC1=NCCN1 | 6.01 to 8.00 |
| Cc1cccn1-c1c(Cl)cccc1CC1=NCCN1 | < 6.00 |
| Clc1ccc(CC2=NCCN2)cc1 | < 6.00 |

The measured pEC50 associated with Cc1c(CC2=NCCN2)cccc1-c1ccco1 reads 6.01 to 8.00

The measured pEC50 associated with FC(F)(F)c1cc(Cl)ccc1CC1=NCCN1 reads 6.01 to 8.00

The measured pEC50 associated with Cc1c(CC2=NCCN2)ccc2c1CCO2 reads 6.01 to 8.00

The measured pEC50 associated with Cc1c(CC2=NCCN2)cc(Cl)c2occc12 reads 6.01 to 8.00

The measured pEC50 associated with FC(F)(F)c1ccc(CC2=NCCN2)c(C2CCCCC2)c1 reads < 6.00

The measured pEC50 associated with Clc1ccc(CC2=NCCN2)c(CC2CCOCC2)c1 reads < 6.00

###

# Emax values compiled below
- Measured Target: α1A-ARS (Homo sapiens, UniProt P35348)
- Assay Text: Calcium flux assay (Calcium 6 dye) in cells expressing an α1-AR
- Format: cell-based
- Condition Notes: calcium flux, α1A-AR; maximum effect relative to full agonist epinephrine; read-out: Average Emax

The measured Emax associated with Fc1ccc(CC2=NCCN2)c(-c2ccccc2)c1 [Compound 79] reads > 61%

The measured Emax associated with CCc1cc(S(=O)(=O)C(F)F)ccc1CC1=NCCN1 [Compound 112] reads > 61%

###

- Measured Target: α1A-ARS (Homo sapiens)
- Assay Text: Calcium flux assay (Calcium 6 dye) in cells expressing an α1-AR
- Assay type: cell-based
- Condition Notes: calcium flux, α1A-AR; mean of at least three experiments; read-out: Average PEC50
pEC50: −log10 of the molar value.
Measurement Name: pEC50

| Smiles Notation | Obs Value |
| --- | --- |
| Cc1cccn1-c1cc(Cl)ccc1CC1=NCCN1 | 6.01 to 8.00 |
| Cc1c(CC2=NCCN2)ccc2occc12 | 6.01 to 8.00 |
| CCc1c(CC2=NCCN2)ccc(S(C)(=O)=O)c1Cl | < 6.00 |
| Cc1csc(-c2cccc(CC3=NCCN3)c2C)n1 | < 6.00 |
| FC(F)Oc1ccc(CC2=NCCN2)c(Cl)c1 | 6.01 to 8.00 |
| Cc1ccccc1CC1=NCCN1 | 6.01 to 8.00 |

The measured pEC50 associated with Clc1ccc(CC2=NCCN2)c(-c2ccco2)c1 reads > 8.01

The measured pEC50 associated with Cc1c(CC2=NCCN2)cccc1-n1cccn1 reads 6.01 to 8.00

The measured pEC50 associated with Clc1cn(C2CC2)c2cc(CC3=NCCN3)ccc12 reads 6.01 to 8.00

The measured pEC50 associated with Cc1cc(CC2=NCCN2)cc(C(F)(F)F)c1 reads 6.01 to 8.00

The measured pEC50 associated with C[C@H](O)c1ccc(CC2=NCCN2)c(Cl)c1 reads 6.01 to 8.00

The measured pEC50 associated with Cc1cc(OC(F)(F)F)ccc1CC1=NCCN1 reads 6.01 to 8.00

The measured pEC50 associated with Fc1ccc(CC2=NCCN2)c(C(F)(F)F)c1 reads < 6.00

The measured pEC50 associated with CCc1cc(S(=O)(=O)C(F)(F)F)ccc1CC1=NCCN1 reads 6.01 to 8.00

The measured pEC50 associated with CC(C)Cc1cc(Cl)ccc1CC1=NCCN1 reads 6.01 to 8.00

The measured pEC50 associated with Cc1c(CC2=NCCN2)cc(Cl)c2nn(C)cc12 reads 6.01 to 8.00

The measured pEC50 associated with Clc1cccc(CC2=NCCN2)c1-n1cccc1 reads 6.01 to 8.00

The measured pEC50 associated with FC(F)(F)c1coc2c(CC3=NCCN3)cccc12 reads < 6.00

The measured pEC50 associated with Cc1cc(C(F)(F)F)ccc1CC1=NCCN1 reads 6.01 to 8.00

The measured pEC50 associated with Cc1c(CC2=NCCN2)cccc1-c1cc[nH]n1 reads 6.01 to 8.00

The measured pEC50 associated with Cc1c(Cl)cccc1CC1=NCCN1 reads < 6.00

###

- Measured Target: α1A-ARS (Homo sapiens)
- Sequence (P35348 1-466): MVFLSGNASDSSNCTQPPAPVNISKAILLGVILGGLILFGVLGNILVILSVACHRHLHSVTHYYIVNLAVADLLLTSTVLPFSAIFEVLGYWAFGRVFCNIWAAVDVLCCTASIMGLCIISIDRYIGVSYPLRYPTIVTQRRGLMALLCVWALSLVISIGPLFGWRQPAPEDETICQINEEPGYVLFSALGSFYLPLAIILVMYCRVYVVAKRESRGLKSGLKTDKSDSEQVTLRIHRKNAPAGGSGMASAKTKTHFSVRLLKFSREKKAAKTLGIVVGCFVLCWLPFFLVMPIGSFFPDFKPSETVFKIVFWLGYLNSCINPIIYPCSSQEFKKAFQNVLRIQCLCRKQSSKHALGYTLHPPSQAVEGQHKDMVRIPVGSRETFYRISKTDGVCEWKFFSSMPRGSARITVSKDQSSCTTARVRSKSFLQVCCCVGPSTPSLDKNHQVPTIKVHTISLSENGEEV
- Assay Text: Calcium flux assay (Calcium 6 dye) in cells expressing an α1-AR
- Format: cell-based
- Condition Notes: read-out: Average Emax
Measurement Name: Emax

| Smiles Notation | Measurement Name | Obs Value |
| --- | --- | --- |
| Cc1c(CC2=NCCN2)cc(Cl)c2occc12 | Emax | 21 to 60% |
| FC(F)Oc1ccc(CC2=NCCN2)c(Cl)c1 | Emax | 21 to 60% |

The measured Emax associated with Cc1c(CC2=NCCN2)ccc2cc[nH]c12 reads < 20%

###

# Emax values compiled below
- Measured Target: α1A-ARS (Homo sapiens)
- Sequence (P35348 1-466): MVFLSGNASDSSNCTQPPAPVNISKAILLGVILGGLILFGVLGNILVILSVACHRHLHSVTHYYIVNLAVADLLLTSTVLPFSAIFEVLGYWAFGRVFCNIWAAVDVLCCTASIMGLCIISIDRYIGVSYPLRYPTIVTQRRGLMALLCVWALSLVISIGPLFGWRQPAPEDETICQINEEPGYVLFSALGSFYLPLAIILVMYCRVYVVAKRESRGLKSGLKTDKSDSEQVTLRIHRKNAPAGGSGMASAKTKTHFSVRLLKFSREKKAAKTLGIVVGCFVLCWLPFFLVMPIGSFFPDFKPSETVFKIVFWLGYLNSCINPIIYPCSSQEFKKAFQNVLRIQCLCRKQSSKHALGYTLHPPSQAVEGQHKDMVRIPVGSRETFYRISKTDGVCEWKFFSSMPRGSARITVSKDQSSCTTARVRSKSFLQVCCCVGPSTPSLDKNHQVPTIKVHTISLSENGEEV
- Assay Text: Calcium flux assay (Calcium 6 dye) in cells expressing an α1-AR
- Assay type: cell-based
- Condition Notes: read-out: Average Emax

Observe how each entry below is paired with its result.
| Smiles Notation | Measurement Name | Obs Value |
| --- | --- | --- |
| CC(C)(C)c1ccccc1CC1=NCCN1 | Emax | < 20% |
| Clc1ccc(CC2=NCCN2)cc1 | Emax | < 20% |
| FC(F)(F)c1ccc(CC2=NCCN2)c(C2CC2)c1 | Emax | > 61% |

The measured Emax associated with Clc1ccccc1CC1=NCCN1 reads < 20%

The measured Emax associated with CC(C)Cc1cc(Cl)ccc1CC1=NCCN1 reads > 61%

The measured Emax associated with Cc1c(CC2=NCCN2)cc(Cl)c2nn(C)cc12 reads 21 to 60%

The measured Emax associated with Cc1ccccc1CC1=NCCN1 reads 21 to 60%

The measured Emax associated with Clc1cn(C2CC2)c2cc(CC3=NCCN3)ccc12 reads 21 to 60%

###

# EC50 values compiled below
- Measured Target: α1A-ARS (Homo sapiens)
- Assay Text: Calcium flux assay (Calcium 6 dye) in cells expressing an α1-AR
- Type: cell-based
- Condition Notes: calcium flux, α1A-AR; mean of at least three experiments; read-out: Average PEC50

Observe how each entry below is paired with its result.
| Molecule | EC50 |
| --- | --- |
| Cc1c(CC2=NCCN2)ccc(Cl)c1-c1cn[nH]c1 [Compound 17] | > 1000 nM |
| CC(C)C(F)(F)c1cc(Cl)ccc1CC1=NCCN1 [Compound 117] | 10 to 977 nM |
| Cc1ccoc1-c1cc(Cl)ccc1CC1=NCCN1 [Compound 35] | < 9.77 nM |

The measured EC50 associated with Clc1ccc(CC2=NCCN2)c(-c2cccnn2)c1 [Compound 33] reads > 1000 nM

The measured EC50 associated with Clc1cc(CC2=NCCN2)ccc1-c1ccn[nH]1 [Compound 2] reads > 1000 nM

The measured EC50 associated with Cc1cc(CC2=NCCN2)cc(OC(F)F)c1 [Compound 148] reads 10 to 977 nM
